In this section, each of the molecules is paired with its reported melting point.

Query block: Look up melting point: "c1cnc2c(c1)OCCN2"
Result block: 85 to 86 °C

Query block: Please give the measured melting point for this molecule: OCC1OC(O)C(F)C(O)C1O (centres undefined)
Result block: 170 to 176 °C

Query block: Reported melting point for "O=[N+]([O-])c1ccc(-n2cc[nH]c2=S)cc1" : what is it?
Result block: 232 to 233 °C

Query block: I would be grateful if you could share the reported melting point for CC1CCc2cc3c(cc2N1)CCC(C)N3 (centres undefined) .
Result block: 125 to 134 °C

* * *

ASSAY READOUT: melting point

{"columns": ["STRUCTURE STRING", "melting point"],
 "data": [
  ["O=Cc1cc(Cl)ccc1[N+](=O)[O-]", "75 to 77 °C"],
  ["CCOC(=O)c1c(NC(=O)CN2CCN(c3ccccc3)CC2)sc2c1CCCC2", "187 to 188 °C"],
  ["CN(C)C(=O)[C@@H](O)[C@H](O)C(=O)N(C)C", "186 to 188 °C"]
]}

Attention now turns to another entry.
Query block: Quick one: melting point of "c1ccc(/N=N/c2ccc(-c3ccc(NNc4ccccc4)cc3)cc2)cc1" ?
Result block: 172 to 173 °C

* * *

The following compounds are listed with their measured melting point values.

{"columns": ["STRUCTURE STRING", "RESULT VALUE"],
 "data": [
  ["COC(=O)[C@H](C)NC(=O)c1ccccc1", "61 to 63 °C"],
  ["N#CC12CC3CC(CC(C3)C1)C2", "195 °C"],
  ["Cc1ccc(N)cc1O", "160 to 165 °C"],
  ["COC(=O)c1sc(N2CCCCC2)c(C#N)c1N", "184 to 185 °C"],
  ["N#CC(=CNNc1ccccc1)c1ccccc1", "155 to 156 °C"],
  ["CC(C)(C)OC(=O)N1CCN(c2ccc(C#N)cc2)CC1", "124 to 125 °C"],
  ["Cn1cnc2c(N)ncnc21", "300 to 302 °C"],
  ["CC1(C)CCC(C)(C)c2cc(S(=O)(=O)Cl)ccc21", "78 to 80 °C"]
]}

Query block: // returns reported melting point for input "Nc1ccc(F)nc1"
Result block: 91 °C

Query block: Which measured melting point value corresponds to "Oc1nccc(C(F)(F)F)n1" ?
Result block: 217 to 218 °C

* * *

Note to self: values exactly at 100 °C are met. So melting point at or above 100 °C is met, below is not met.

{"columns": ["COMPOUND", "CLASS LABEL"],
 "data": [
  ["COc1ccc(C(=O)C(O)c2ccc(OC)cc2)cc1 (stereo unspecified)", "met"],
  ["CCOC(=O)c1c(SC)nn(C(=O)c2cccc(C)c2)c1C", "met"],
  ["BrC12CC3CC(CC(C3)C1)C2", "met"],
  ["Nc1ccc(-c2ccccc2N)cc1", "not met"],
  ["O=C1c2ccc(O)cc2OC(c2ccc(O)c(O)c2)C1O (stereo unspecified)", "met"],
  ["CC12CC(=O)C3C(CCC4=CC(=O)CCC43C)C1CCC2=O (stereo unspecified)", "met"]
]}

Query block: Evaluate "CC(C)OC(=O)[C@H](C)O" : melting point at minimum 100 °C?
Result block: not met

* * *

ASSAY READOUT: melting point

{"columns": ["STRUCTURE STRING", "melting point"],
 "data": [
  ["Cc1ncsc1C(=O)O", "254 to 255 °C"]
]}

Query block: I am curious: what melting point value has been reported for "CC(C)(C)C(=O)Nc1ccccc1Cc1ccccc1" ?
Result block: 86 to 90 °C

Query block: Can you share its melting point? I mean this molecule: "Oc1c(Br)c(Br)c(O)c(Br)c1Br"
Result block: 255 to 260 °C

* * *

// reported melting point per item

Below are worked cases with known answers.
{"columns": ["COMPOUND", "RESULT VALUE"],
 "data": [
  ["CCOc1c(Br)cc(Br)cc1C=O", "87 to 87.5 °C"],
  ["N#CC1(c2ccc(F)cc2)CCC(=O)CC1", "93 °C"],
  ["CCc1cc(C#N)ccc1N", "63 °C"],
  ["O=C(c1ccccc1)c1cccc2ccccc12", "76 °C"],
  ["O=C(O)CC[C@H](NC(=O)OCc1ccccc1)C(=O)O", "118 to 121 °C"]
]}

Query block: Suppose we examine the compound CCC(c1ccc2cc(OC)ccc2c1)C(C)(C)C(=O)O (stereo not drawn) ; what melting point value has been reported?
Result block: 140 °C

Query block: Fill in: melting point of "Cc1ccc(N=C(Nc2ccc(C)cc2)c2cc(C(C)(C)C)c(O)c(C(C)(C)C)c2)cc1" is ___
Result block: 207 °C

Query block: Please report the recorded melting point for "CCN(C(=O)Oc1cccc(NC(=O)OC(C)C)c1)c1ccccc1" .
Result block: 110 °C

Query block: Entry under review: "O=C(CCl)C(Cl)(Cl)Cl" . Reported melting point?
Result block: 65 °C

Query block: Fill in the blank: the reported melting point of C1CCC2(CC1)OCC(C1OC3(CCCCC3)OC1C1COC3(CCCCC3)O1)O2 (stereo not drawn) is ____.
Result block: 82 to 84 °C

Query block: Consider the compound "Nc1cccc(-c2cccnc2)c1" and give its measured melting point.
Result block: 74 to 78 °C

Query block: Look up melting point for this compound: "C[C@]12CC[C@H]3[C@@H](CC=C4C[C@@H](O)CC[C@@]43C)[C@@H]1CC[C@@H]2O"
Result block: 178 to 182 °C

Query block: What measured melting point goes with "CCOC(=O)c1cnc2ccc(OC(F)(F)F)cc2c1O" ?
Result block: 297 to 305 °C

* * *

List of melting point values.

Study these solved cases before continuing.
{"columns": ["MOLECULE", "melting point"],
 "data": [
  ["CSc1nc2ccccc2c(=O)n1-c1ccccc1", "123 to 125 °C"],
  ["Nc1nsc(SCc2ccccc2)n1", "120 to 121 °C"],
  ["NC(=S)c1ccc2nonc2c1", "132 to 135 °C"]
]}

Query block: Using the record for CC(CCC(=O)O)C1CCC2C3CCC4CCCCC4(C)C3CC(O)C12C (centres undefined) , report its melting point.
Result block: 186 to 188 °C

* * *

ASSAY READOUT: melting point

{"columns": ["COMPOUND", "RESULT VALUE"],
 "data": [
  ["N#Cc1c(Cl)cccc1Oc1ccc(S(=O)(=O)Cl)cc1", "137 to 139 °C"],
  ["CN(C(=O)OC(C)(C)C)C(C)(C)C(=O)O", "153 to 157 °C"],
  ["O=C1CCCN1c1ccc(S(=O)(=O)Cl)cc1", "107 to 108 °C"]
]}

Query block: Record request: melting point value, item "NN1C(=O)c2ccccc2C1=O"
Result block: 200 to 202 °C

Query block: Reported melting point, compound "COc1ccc(C=Nc2n[nH]c(N=Cc3ccc(OC)c(OC)c3)c2Cc2ccc(Cl)cc2)cc1OC" : ____
Result block: 170 to 172 °C

Query block: Need melting point of CC1(c2ccccc2)CC(C(=NO)c2cc3cc(Br)ccc3o2)C1 (stereo not given) , thanks.
Result block: 134 to 135 °C

Query block: What value of measured melting point is listed for "Nc1ccccc1OC1CCOCC1" ?
Result block: 58 to 61 °C

Query block: Entry "O=C1c2[nH]c3ccc(Br)cc3c2CCN1Cc1ccc(Cl)cc1" : reported melting point = ?
Result block: 233 °C

Query block: Which melting point is reported for this compound? "CC(C)(O)C(Br)(Br)Br"
Result block: 169 °C

Query block: Record request: melting point value, item "Cc1ccc(C#N)c(S(=O)(=O)Cl)c1"
Result block: 71 to 73 °C

* * *

Could you mark each record 1 if its melting point falls strictly under 90 °C, and -1 if it equals or exceeds it?

Solved cases (5 shown):
{"columns": ["STRUCTURE STRING", "CLASS LABEL"],
 "data": [
  ["CCCCCCCCCC(=O)CCCCCCCCC", 1],
  ["NCCC(=O)N[C@@H](Cc1c[nH]cn1)C(=O)O", -1],
  ["Cc1cc(C(F)(F)F)cc(=O)[nH]1", -1],
  ["Cc1ccccc1/C=C(\\C#N)c1nc2ccccc2n1C", -1],
  ["Clc1cccc(C(Cl)(Cl)Cl)n1", 1]
]}

Read the next record carefully.
Query block: Lab note: confirm whether the reported melting point for this compound is below 90 °C, equality not counting. compound: "N#Cc1cc(I)c(O)c(I)c1"
Result block: -1

* * *

// values below are reported melting point

Query block: Need melting point of "Cc1nc(COc2ccc(C(N)=NO)cc2)cs1" , thanks.
Result block: 193 to 194 °C

Query block: GET /values?readout=melting point&item= "N#CCN1C(=O)c2ccccc2S1(=O)=O"
Result block: 142 to 143 °C

Query block: Item under review: "O=C(O)CCC(F)(F)C(F)(F)C(F)(F)F" . Reported melting point?
Result block: 38 to 39 °C
